The following compounds are shown together with reported T/C values.
Tested on: P388 leukemia ip, CD2F1 mice, survival T/C
protocol text: NCI In Vivo Anticancer Drug Screen. Data for tumor model P388 Leukemia (intraperitoneal) in CD2F1 (CDF1) mice
condition parameters: endpoint: median survival time; dose: 200.0 mg/kg/injection; schedule: Q01DX001 (ip); vehicle: saline with Tween-80; higher = longer survival
Toxic doses and inconclusive results are not listed.

Answered cases to consult:
O=Cc1cccc(OC(=O)Oc2cccc(C=O)c2)c1 ... 99 % of control
CCOC(=O)c1c[nH][nH]c1=O ... 106 % of control
CS(=O)(=O)Nc1ccc(Oc2c3ccccc3nc3ccccc23)cc1 ... 92 % of control
CC(=O)OC1SC(C)(C)n2c1nc1ccccc1c2=O (stereo unspecified) ... 104 % of control
O=C(O)c1cccc(C(=O)O)c1S(=O)(=O)c1ccccc1 ... 98 % of control

We next turn to a different compound, shown below.
Req: Give its T/C value. Item: c1ccc2c3cc(cc2c1)OCCOCCOCCOc1ccc2ccccc2c1-c1c(ccc2ccccc12)OCCOCCOc1ccc2ccccc2c1-3
Resp: 94 % of control

---

Test system: P388 leukemia ip, CD2F1 mice, survival T/C
protocol text: NCI In Vivo Anticancer Drug Screen. Data for tumor model P388 Leukemia (intraperitoneal) in CD2F1 (CDF1) mice
condition parameters: endpoint: median survival time; dose: 60.0 mg/kg/injection; schedule: Q01DX005 (ip); vehicle: Klucel (hydroxypropylcellulose) (HPC); higher = longer survival
Toxic doses and inconclusive results are not listed.
# Lookup of reported T/C keyed by entry

Observe how each entry below is paired with its result.
Cc1ccc(Cl)cc1NC(=O)OCCN(C)C(=O)Nc1cc(Cl)ccc1C ... 96 % of control
O=c1nc(N2CCCC2)oc2cc3ccccc3cc12 ... 95 % of control
CC1=C(S(=O)(=O)c2ccccc2)C(c2ccccc2)N(C)O1 (stereo unspecified) ... 102 % of control
CCCN(C)CC(=O)NC(Cc1ccccc1)c1ccccc1 (stereo unspecified) ... 93 % of control
c1coc(-c2cc(-c3cc(-c4ccco4)on3)no2)c1 ... 105 % of control

Please find the next compound below.
Req: For the compound shown here, Clc1cccc2c(SCCCCCCSc3c4ccccc4nc4c(Cl)cccc34)c3ccccc3nc12 , give the reported T/C.
Resp: 92 % of control

---

System: P388 leukemia ip, CD2F1 mice, survival T/C
protocol text: NCI In Vivo Anticancer Drug Screen. Data for tumor model P388 Leukemia (intraperitoneal) in CD2F1 (CDF1) mice
condition parameters: endpoint: median survival time; dose: 50.0 mg/kg/injection; schedule: Q01DX009 (ip); vehicle: saline with Tween-80; higher = longer survival
Procedure: The antitumor activity of compounds was measured in mice bearing transplantable tumors. Survival or tumor size were measured and the results are expressed as the measurement made in the treated group (T) divided by the measurement made in the vehicle treated control group (C). The tumor model used in this assay is P388 Leukemia (intraperitoneal) in CD2F1 (CDF1) mice
Toxic doses and inconclusive results are not listed.
metric: T/C

Would you please look over these solved cases?
CC(=O)OC1CCCCC1C (configuration not stated) ... 113 % of control
COc1cccc(OC)c1N ... 108 % of control
CCOC(=O)c1cnc2cc3c(c[nH]n3C(c3ccccc3)(c3ccccc3)c3ccccc3)cc2c1=O ... 94 % of control
O=C(c1ccc2c(c1)OCO2)N1OC2C=CC1CC2 (configuration not stated) ... 98 % of control
CCCCOC(=O)c1ccc(NC(=O)Nc2cc(C)ccc2C)cc1 ... 96 % of control
CCCCCN(CCCCC)c1nsc(Cl)n1 ... 103 % of control
O=S(=O)(OC1=CCCCC1)C(F)(F)F ... 100 % of control
CNc1ccccc1C(=O)N/N=C/C=C/c1ccccc1 ... 104 % of control
CCNCc1c(C)nc2ccc(N(C)C)cc2c1Cl ... 88 % of control
O=C1CCC2(ON=C(c3ccccc3)C2Br)O1 (configuration not stated) ... 116 % of control

Req: For the record CCN(CC)CCOC(=O)c1ccc(N=C/C=C/C(C#N)=C/NOC)cc1 , what value of T/C is listed for P388 leukemia ip, CD2F1 mice, survival T/C?
Resp: 113 % of control

Req: Hello, I am looking for reported T/C with P388 leukemia ip, CD2F1 mice, survival T/C for O=C1CC2(C(=O)O1)C1C(=O)OC(=O)C1C1c3ccccc3C=NN12 (configuration not stated) . Could you help?
Resp: 98 % of control

---

Listed compounds paired with reported T/C
System: P388 leukemia ip, CD2F1 mice, survival T/C
protocol text: NCI In Vivo Anticancer Drug Screen. Data for tumor model P388 Leukemia (intraperitoneal) in CD2F1 (CDF1) mice
condition parameters: endpoint: median survival time; dose: 400.0 mg/kg/injection; schedule: Q01DX009 (ip); vehicle: Klucel (hydroxypropylcellulose) (HPC); higher = longer survival
Toxic doses and inconclusive results are not listed.

Worked cases, T/C given:
C=C[C@]1(C)C[C@@H](OC(=O)CO)[C@@]2(C)[C@H](C)CC[C@]3(CCC(=O)[C@H]32)[C@@H](C)[C@@H]1O ... 107 % of control
COC(=O)C(Cc1c[nH]c2ccccc12)NC(=O)C(NC(=O)OC(C)(C)C)C(C)C (centres undefined) ... 90 % of control
OB(O)c1ccc(B(O)O)cc1 ... 104 % of control

Okay, now this compound:
Req: Fill in the blank: the reported T/C of CCOC(=O)C1(CC)C(=O)C=C(c2ccccc2)CC1c1ccccc1 (centres undefined) is ____.
Resp: 94 % of control

---

Examples of compounds with documented T/C follow.
Test system: P388 leukemia ip, CD2F1 mice, survival T/C
protocol text: NCI In Vivo Anticancer Drug Screen. Data for tumor model P388 Leukemia (intraperitoneal) in CD2F1 (CDF1) mice
condition parameters: endpoint: median survival time; dose: 12.5 mg/kg/injection; schedule: Q01DX005 (ip); vehicle: saline; higher = longer survival
Inconclusive results and toxic doses are left out.

Record excerpt, results attached:
O=c1[nH]oc(=O)[nH]1 ... 97 % of control
O=C1C[C@@H]2OCC=C3C[N+]4([O-])CC[C@]56c7ccccc7N1[C@H]5[C@H]2[C@H]3C[C@@H]64 (stereo not given in full) ... 95 % of control
C[N+]1(C)CCC(C(=O)c2ccccc2)CC1 ... 96 % of control

Req: Param item = Cc1cc[n+](-c2c3c(nc4ccccc24)-c2ccccc2C(C)(C)C3)cc1 ; retrieve measured T/C.
Resp: 100 % of control

Req: Given the compound CC1=C[P+](c2ccccc2)(c2ccccc2)C=C(C)O1 , what is its reported T/C?
Resp: 105 % of control

---

Tested on: P388 leukemia ip, CD2F1 mice, survival T/C
protocol text: NCI In Vivo Anticancer Drug Screen. Data for tumor model P388 Leukemia (intraperitoneal) in CD2F1 (CDF1) mice
condition parameters: endpoint: median survival time; dose: 6.25 mg/kg/injection; schedule: Q01DX009 (ip); vehicle: saline; higher = longer survival
Experimental: The antitumor activity of compounds was measured in mice bearing transplantable tumors. Survival or tumor size were measured and the results are expressed as the measurement made in the treated group (T) divided by the measurement made in the vehicle treated control group (C). The tumor model used in this assay is P388 Leukemia (intraperitoneal) in CD2F1 (CDF1) mice
Toxic doses and inconclusive results are not listed.
Reported T/C values for a set of compounds

Worked cases, T/C given:
Cc1ccc(C(=O)CCN(C)C)cc1 ... 105 % of control
CCC[CH2][Sn]1([CH2]CCC)[O]C(=O)CSC(=S)SCC(=O)[O]1 ... 89 % of control
CN=C(N)NCCCCCCCCNC(N)=NC ... 109 % of control
CN(C)CCSc1cccc2c1C(=O)c1cccc(SCCN(C)C)c1C2=O ... 86 % of control

Req: Would you mind telling me what T/C value was observed for O=[N+]([O-])c1cccc2c[n+](Cc3ccc(Br)cc3)ccc12 ?
Resp: 107 % of control

Req: Using the record for CCCS(=O)(=O)Nc1ccc(Nc2c3ccccc3nc3ccccc23)c(OC)c1 , report its T/C.
Resp: 118 % of control

Req: What value of T/C has been reported for the following compound? CCCCCC(CN(C)C)C(=O)/C=C/c1ccccc1Cl (centres undefined)
Resp: 104 % of control

Req: What value of measured T/C is listed for Nc1nc(-c2ccccc2)nc(-c2ccccc2)n1 ?
Resp: 92 % of control

Req: If you can, please state the reported T/C value of CN1C=[N+](C)Cc2nnn(Cc3ccccc3)c21 .
Resp: 100 % of control

---

Test system: P388 leukemia ip, CD2F1 mice, survival T/C
protocol text: NCI In Vivo Anticancer Drug Screen. Data for tumor model P388 Leukemia (intraperitoneal) in CD2F1 (CDF1) mice
condition parameters: endpoint: median survival time; dose: 60.0 mg/kg/injection; schedule: Q01DX005 (ip); vehicle: Klucel (hydroxypropylcellulose) (HPC); higher = longer survival
Inconclusive results and toxic doses are left out.
Quick reference for T/C among some compounds

Completed entries (count: 5):
O=C1C(C2(O)C(=O)Nc3ccccc32)CCCC1C1(O)C(=O)Nc2ccccc21 (stereo not drawn) ... 90 % of control
CC1CCCCN1CC(C)(C)C (stereo not drawn) ... 100 % of control
CC1CC(=O)NN1 (stereo not drawn) ... 100 % of control
O=C1c2ccccc2C(=O)N1Cc1cccc(I)c1 ... 97 % of control
CC1([N+](=O)[O-])C(=O)C2(N3CCCC3)CCCC2C1c1ccccc1 (stereo not drawn) ... 99 % of control

Req: Hello, I am looking for reported T/C with P388 leukemia ip, CD2F1 mice, survival T/C for O=[N+]([O-])c1ccc(-c2ncc(-c3ccc(Br)cc3)o2)cc1 . Could you help?
Resp: 108 % of control

Req: Lab note: need T/C with P388 leukemia ip, CD2F1 mice, survival T/C for entry O=C1c2ccccc2-c2nnsc21 , please look it up.
Resp: 98 % of control

Req: Provide value of T/C for this record tested with P388 leukemia ip, CD2F1 mice, survival T/C: CCN(CC)C(=Nc1ccc(Cl)c(Cl)c1)SC(NC=O)=C(Cl)Cl
Resp: 100 % of control

Req: Record lookup: for P388 leukemia ip, CD2F1 mice, survival T/C, what T/C belongs to NC(=O)c1ccc2c3c(ccc(C(N)=O)c13)CC2 ?
Resp: 102 % of control

Req: Request: T/C, test system P388 leukemia ip, CD2F1 mice, survival T/C, entry c1ccc(N2CN(c3ccccc3)C2)cc1
Resp: 88 % of control

Req: Param readout= T/C; system= P388 leukemia ip, CD2F1 mice, survival T/C; entry= CN(CN(C)N=Nc1ccc(Cl)cc1)CN(C)N=Nc1ccc(Cl)cc1 ; returns value.
Resp: 104 % of control

Req: Give T/C (P388 leukemia ip, CD2F1 mice, survival T/C) of the following compound: CCCCC(C(=O)OCC)/C(C)=N\NC(N)=S (stereo not drawn)
Resp: 100 % of control

Req: Checklist item: T/C tested on P388 leukemia ip, CD2F1 mice, survival T/C, entry O=C1C2CCCN2C(=S)N1c1ccccc1 (stereo not drawn) , value?
Resp: 96 % of control

These measurements were taken from PubChem BioAssay AID330.
